# measurement_target: Caspase-10 (Homo sapiens, UniProt Q92851)
# Construct: mixing the compounds with the respective active caspases; purchased BioVision K160-100
# Sequence (Q92851 220-415 limits assumed): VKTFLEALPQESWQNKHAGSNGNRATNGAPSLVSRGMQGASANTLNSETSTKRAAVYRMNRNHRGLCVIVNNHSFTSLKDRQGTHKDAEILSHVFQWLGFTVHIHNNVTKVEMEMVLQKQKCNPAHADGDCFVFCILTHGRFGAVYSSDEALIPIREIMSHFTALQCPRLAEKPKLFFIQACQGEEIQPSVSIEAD
# Sequence (Q92851 416-521 limits assumed): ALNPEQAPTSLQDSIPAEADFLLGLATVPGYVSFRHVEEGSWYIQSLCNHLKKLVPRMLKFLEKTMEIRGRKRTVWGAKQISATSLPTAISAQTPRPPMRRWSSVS
# experiment: Caspase-10 inhibitor screening assay (BioVision kit, AEVD-AFC)
# Format: biochemical
# settings: read-out: IC50 Casp10
assay_readout: IC50 (µM)
Use µM as the unit, but write only the number.

The following compounds have reported results that may help.
compound_structure=CC(C)(C)[C@H](NC(=O)c1ccc2ccccc2n1)C(=O)N1CCC[C@@H]1C(=O)N[C@H](/C=C/S(C)(=O)=O)CC(=O)O measurement_target="Caspase-10 (Homo sapiens, UniProt Q92851)" assay_readout=IC50 test_value=56
compound_structure=CC(C)[C@H](NC(=O)[C@H](Cc1cn(C)c2ccccc12)NC(=O)[C@H](CC(=O)O)NC(=O)OCc1ccccc1)C(=O)N[C@H](/C=C/S(C)(=O)=O)CC(=O)O measurement_target="Caspase-10 (Homo sapiens, UniProt Q92851)" assay_readout=IC50 test_value=18.6
compound_structure=CC(C)[C@H](NC(=O)[C@H](CCC(=O)O)NC(=O)[C@H](Cc1c[nH]c2ccccc12)NC(=O)OCc1ccccc1)C(=O)N[C@H](/C=C/S(C)(=O)=O)CC(=O)O measurement_target="Caspase-10 (Homo sapiens, UniProt Q92851)" assay_readout=IC50 test_value=3.29
compound_structure=CC(C)(C)[C@H](NC(=O)c1ccc2ccccc2n1)C(=O)N1CC[C@@H]1C(=O)N[C@H](/C=C/S(C)(=O)=O)CC(=O)O measurement_target="Caspase-10 (Homo sapiens, UniProt Q92851)" assay_readout=IC50 test_value=12.5

Incoming: Param readout= IC50; system= Caspase-10 (Homo sapiens, UniProt Q92851); entry= CCOC(=O)/C=C/[C@H](CC(=O)O)NC(=O)[C@H]1CCCN1C(=O)[C@@H](NC(=O)c1ccc(N)c(Cl)c1)C(C)(C)C ; returns value.
Outgoing: 0.55

Incoming: GET /values?readout=IC50&system=Caspase-10 (Homo sapiens, UniProt Q92851)&item= CCOC(=O)/C(Cl)=C/[C@H](CC(=O)O)NC(=O)[C@H]1CCCN1C(=O)[C@H](NC(=O)[C@H](CC(=O)O)NC(=O)OCc1ccccc1)C(C)(C)C
Outgoing: 0.05

* * *

# measurement_target: Caspase-3 (Homo sapiens, UniProt P42574)
# Construct: mixing the compounds with the respective active caspases; purchased BioVision K153-100
# Sequence (P42574 29-175 limits assumed): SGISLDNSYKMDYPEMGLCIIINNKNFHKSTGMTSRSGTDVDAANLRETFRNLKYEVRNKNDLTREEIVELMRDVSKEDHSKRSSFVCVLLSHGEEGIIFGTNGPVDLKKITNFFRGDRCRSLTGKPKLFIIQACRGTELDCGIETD
# Sequence (P42574 176-277 limits assumed): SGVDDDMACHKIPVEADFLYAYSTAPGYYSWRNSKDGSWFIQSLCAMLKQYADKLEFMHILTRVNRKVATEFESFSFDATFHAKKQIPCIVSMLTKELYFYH
# experiment: Caspase-3 inhibitor screening assay (BioVision kit, DEVD-AFC)
# Assay type: biochemical
# settings: read-out: % Inhibition at 100 uM Casp3
# From the text: […]
Kindly note that classification relies on inhibition at 100 µM with these boundaries: range A = under 5%, range B = from 5% up to 40%, range C = 40% and over

Incoming: Which of the defined bands does the recorded inhibition at 100 µM of CC(C)(C)[C@H](NC(=O)c1ccc2ccccc2n1)C(=O)N1CCC[C@@H]1C(=O)N[C@H](/C=C/S(C)(=O)=O)CC(=O)O sit within?
Outgoing: range A

Incoming: Entry CCOC(=O)/C=C/[C@H](CC(=O)O)NC(=O)[C@H]1CCCN1C(=O)[C@@H](NC(=O)c1ccc2ccccc2n1)C(C)(C)C belongs to which category?
Outgoing: range B

Incoming: Which inhibition at 100 µM band matches CS(=O)(=O)/C(Cl)=C/[C@@H](N)CC(=O)O ?
Outgoing: range B

Incoming: Using the reported inhibition at 100 µM, which band applies to CC(C)[C@H](NC(=O)[C@@H](N)Cc1ccc(O)cc1)C(=O)N[C@@H](C)C(=O)N[C@H](/C=C/S(C)(=O)=O)CC(=O)O ?
Outgoing: range A

Incoming: For CC(C)(C)[C@H](NC(=O)[C@H](CC(=O)O)NC(=O)OCc1ccccc1)C(=O)N1CCCC1C(=O)N[C@H](/C=C/S(C)(=O)=O)CC(=O)O (stereo in doubt) , which inhibition at 100 µM bin applies?
Outgoing: range C

Incoming: # classify by inhibition at 100 µM band: CC(C)[C@H](NC(=O)[C@H](CCC(=O)O)NC(=O)[C@H](Cc1c[nH]c2ccccc12)NC(=O)OCc1ccccc1)C(=O)N[C@H](/C=C/S(C)(=O)=O)CC(=O)O
Outgoing: range C

Incoming: Which inhibition at 100 µM band matches CS(=O)(=O)/C=C/[C@H](CC(=O)O)NC(=O)[C@H]1CCC(=O)N1 ?
Outgoing: range A

Incoming: Please classify: CC(C)(C)[C@H](NC(=O)c1ccc(N)c(Cl)c1)C(=O)N1CCCC1C(=O)N[C@H](/C=C/S(C)(=O)=O)CC(=O)O (stereo in doubt)
Outgoing: range B

Incoming: For the record CS(=O)(=O)/C=C/[C@H](CC(=O)O)NC(=O)[C@H]1CCCN1C(=O)[C@@H](NC(=O)[C@H](CC(=O)O)NC(=O)OCc1ccccc1)c1ccccc1 , report the class its inhibition at 100 µM corresponds to.
Outgoing: range C

* * *

# measurement_target: Caspase-9 (Homo sapiens, UniProt P55211)
# Construct: purchased BioVision K159-100
# Sequence (P55211 1-315 limits assumed): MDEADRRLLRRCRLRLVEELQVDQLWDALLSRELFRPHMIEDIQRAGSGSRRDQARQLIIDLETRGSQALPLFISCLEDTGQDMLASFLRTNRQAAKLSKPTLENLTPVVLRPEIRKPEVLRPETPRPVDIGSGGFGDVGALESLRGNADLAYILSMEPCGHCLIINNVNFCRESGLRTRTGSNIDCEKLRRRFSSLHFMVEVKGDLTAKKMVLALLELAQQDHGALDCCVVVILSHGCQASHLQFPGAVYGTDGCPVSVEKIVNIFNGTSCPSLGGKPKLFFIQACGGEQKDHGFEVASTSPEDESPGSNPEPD
# Sequence (P55211 331-416 limits assumed): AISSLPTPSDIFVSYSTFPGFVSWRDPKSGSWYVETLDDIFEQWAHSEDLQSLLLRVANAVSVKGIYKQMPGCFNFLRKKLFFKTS
# experiment: Caspase-9 inhibitor screening assay (BioVision kit, LEHD-AFC)
# Type: biochemical
# settings: 10 uM; read-out: % Inhibition at 10 uM Casp9
# From the text: […]
Below: a set of entries, each annotated with reported inhibition at 10 µM.
Report as a plain number; the unit % is understood.

Incoming: I'd like to know its inhibition at 10 µM. The molecule in question is CCOC(=O)/C=C/[C@H](CC(=O)O)NC(=O)[C@H]1CCCN1C(=O)[C@@H](NC(=O)c1ccc2ccccc2n1)C(C)(C)C
Outgoing: 53

Incoming: Consider the molecule CC(C)(C)OC(=O)CC[C@H](NC(=O)OC(C)(C)C)C(=O)N[C@H](/C=C/S(C)(=O)=O)CC(=O)OC(C)(C)C and give its measured inhibition at 10 µM.
Outgoing: 1

Incoming: Report inhibition at 10 µM for CC(C)[C@H](NC(=O)[C@@H](NC(=O)[C@H](CC(=O)O)NC(=O)OCc1ccccc1)c1ccccc1)C(=O)N[C@H](/C=C/S(C)(=O)=O)CCC(=O)O please.
Outgoing: 0

Incoming: So what's the measured inhibition at 10 µM for this one? CC(C)[C@H](NC(=O)OCc1ccccc1)C(=O)N[C@H](/C=C(\Cl)S(C)(=O)=O)CC(=O)O
Outgoing: 16

Incoming: Value lookup for inhibition at 10 µM; key = CS(=O)(=O)/C=C/[C@H](CC(=O)O)NC(=O)C1CCCN1C(=O)[C@@H](NC(=O)[C@H](CC(=O)O)NC(=O)OCc1ccccc1)C1CC1 (stereo in doubt)
Outgoing: 54

Incoming: Endpoint output: inhibition at 10 µM of CC(C)[C@H](NC(=O)OCc1ccccc1)C(=O)N[C@H](/C=C/S(C)(=O)=O)CC(=O)O . Value?
Outgoing: 0

* * *

# measurement_target: Caspase-7 (Homo sapiens, UniProt P55210)
# Construct: mixing the compounds with the respective active caspases; purchased BioVision K157-100
# Sequence (P55210 24-198 limits assumed): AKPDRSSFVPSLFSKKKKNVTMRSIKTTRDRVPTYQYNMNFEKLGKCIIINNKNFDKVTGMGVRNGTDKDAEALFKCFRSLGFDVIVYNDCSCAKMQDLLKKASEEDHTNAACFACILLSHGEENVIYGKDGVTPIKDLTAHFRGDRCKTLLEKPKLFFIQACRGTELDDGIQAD
# Sequence (P55210 207-303 limits assumed): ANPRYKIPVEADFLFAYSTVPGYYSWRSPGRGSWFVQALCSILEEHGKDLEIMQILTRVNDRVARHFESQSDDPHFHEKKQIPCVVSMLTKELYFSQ
# experiment: Caspase-7 inhibitor screening assay (BioVision kit, DEVD-AFC)
# Format: biochemical
# settings: 10 uM; read-out: % Inhibition at 10 uM Casp7
# Source text: […]
Structures can show the parent of a compound that is named as a salt.
Parameter: inhibition at 10 µM. Scope: all listed entries.
The answer is to be given in %; state only the numeric part.

Example results:
compound=CCOC(=O)/C=C/[C@H](CC(=O)O)NC(=O)[C@H]1CCCN1C(=O)[C@@H](NC(=O)c1ccc2ccccc2n1)C(C)(C)C test_value=3
compound=CC(C)[C@H](NC(=O)[C@@H](N)Cc1ccc(O)cc1)C(=O)N[C@@H](C)C(=O)N[C@H](/C=C/S(C)(=O)=O)CC(=O)O test_value=0
compound="CCOC(=O)/C=C/[C@@H](N)CC(=O)O [Compound 44, Asp ethyl vinyl ester tosyl salt]" test_value=0

Incoming: Would you mind telling me what inhibition at 10 µM value was observed for CS(=O)(=O)/C=C/[C@H](CC(=O)O)NC(=O)[C@H]1CCCN1C(=O)[C@@H](NC(=O)[C@H](CC(=O)O)NC(=O)OCc1ccccc1)c1ccccc1 ?
Outgoing: 68

Incoming: Entry CC(C)[C@H](NC(=O)OCc1ccccc1)C(=O)N[C@H](/C=C(\Cl)S(C)(=O)=O)CC(=O)O : reported inhibition at 10 µM = ?
Outgoing: 3

Incoming: Need inhibition at 10 µM, item CC(C)[C@H](NC(=O)c1ccc2ccccc2n1)C(=O)N[C@H](/C=C/S(C)(=O)=O)CC(=O)O
Outgoing: 3

Incoming: So what's the measured inhibition at 10 µM for this one? CC(C)[C@H](NC(=O)[C@H](CCC(=O)O)NC(=O)[C@H](Cc1c[nH]c2ccccc12)NC(=O)OCc1ccccc1)C(=O)N[C@H](/C=C/S(C)(=O)=O)CC(=O)O
Outgoing: 19

Incoming: Suppose we examine the compound CCC(C)[C@H](NC(=O)[C@H](CCC(=O)O)NC(=O)[C@@H](NC(=O)OCc1ccccc1)C(C)C)C(=O)N[C@H](/C=C/S(C)(=O)=O)CC(=O)O (stereo partly drawn) ; what inhibition at 10 µM value has been reported?
Outgoing: 0

Incoming: # inhibition at 10 µM lookup, item CC(C)(C)[C@H](NC(=O)[C@H](CC(=O)O)NC(=O)OCc1ccccc1)C(=O)N1CCCC1C(=O)N[C@H](/C=C/S(C)(=O)=O)CC(=O)O (stereo in doubt)
Outgoing: 99

Incoming: I am curious: what inhibition at 10 µM value has been reported for CC(C)[C@H](NC(=O)OCc1ccccc1)C(=O)N[C@H](/C=C/S(C)(=O)=O)CC(=O)O ?
Outgoing: 0

Incoming: Need inhibition at 10 µM, item CC(C)[C@H](NC(=O)[C@H](Cc1cn(C)c2ccccc12)NC(=O)[C@H](CC(=O)O)NC(=O)OCc1ccccc1)C(=O)N[C@H](/C=C/S(C)(=O)=O)CC(=O)O
Outgoing: 95
